Tested on: β-galactosidase in CMV-LacZ C2C12 myotubes
Experiment: CMV-LacZ secondary screen in C2C12 myotubes (β-Gal stabilizing assay)
Format: cell-based, mouse
Conditions: 5 uM; SU9516 analogs, C2C12 CMV-LacZ, N=2
TEST READOUT: CMV-LACZ in Myotubes, value relative to DMSO
Answer with a bare number; do not write a unit.

Below, 4 compounds whose answers are already recorded.
- COMPOUND: "CCN(CC)CCNC(=O)c1c(C)[nH]c(/C=C2\\C(=O)Nc3ccc(F)cc32)c1C [NCGC00164631-03]"
  MEASUREMENT TARGET: "β-galactosidase in CMV-LacZ C2C12 myotubes"
  DATA VALUE: 0.8420
- COMPOUND: "O=C1Nc2ccccc2/C1=C/c1ccccc1Cl [MLS001202425-01]"
  MEASUREMENT TARGET: "β-galactosidase in CMV-LacZ C2C12 myotubes"
  DATA VALUE: 1.1496
- COMPOUND: "CC(C)Oc1ccc(C(=O)/C=C2/C(=O)Nc3ccccc32)cc1 [MLS001214276-01]"
  MEASUREMENT TARGET: "β-galactosidase in CMV-LacZ C2C12 myotubes"
  DATA VALUE: 2.0151
- COMPOUND: "COc1ccc2c(c1)C(=C(C#N)C#N)C(=O)N2CCc1ccccc1 [MLS000763074-01]"
  MEASUREMENT TARGET: "β-galactosidase in CMV-LacZ C2C12 myotubes"
  DATA VALUE: 1.0487

Given item Cc1cc(C)c(/C=C2\C(=O)Nc3ccccc32)[nH]1 [NCGC00094381-04] , the value recorded as its CMV-LACZ in Myotubes, value relative to DMSO is 1.2849

Given item Cc1ccccc1/C=C1\C(=O)Nc2ccc(F)cc21 [MLS001197838-01] , the value recorded as its CMV-LACZ in Myotubes, value relative to DMSO is 0.9701

Given item Cc1ccc2c(c1)/C(=C/c1ccccc1)C(=O)N2 [MLS001202354-01] , the value recorded as its CMV-LACZ in Myotubes, value relative to DMSO is 0.8910

Given item O=Nc1c(-c2c(O)[nH]c3ccccc23)[nH]c2ccccc12 [NCGC00015545-02] , the value recorded as its CMV-LACZ in Myotubes, value relative to DMSO is 0.7586

Given item Cc1ccc2c(c1)/C(=C/c1ccc(F)cc1)C(=O)N2 [MLS001202366-01] , the value recorded as its CMV-LACZ in Myotubes, value relative to DMSO is 0.8072
